testedOn: T1, Human TREM2 extracellular domain (ECD), residues 19-131, C-terminally biotinylated, deglycosylated (human, UniProt Q9NZC2 19-131, C-terminally biotinylated; deglycosylated)
T1 construct: range 19-131; loaded on Superstreptavidin biosensors; also called triggering receptor expressed on myeloid cells 2; Human BLI (deglycosylated)
T1 sequence (looked up): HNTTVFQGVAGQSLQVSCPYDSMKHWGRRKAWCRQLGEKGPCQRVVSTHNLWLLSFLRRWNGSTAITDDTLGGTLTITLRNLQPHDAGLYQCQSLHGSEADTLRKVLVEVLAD
measurementProtocol: BLI steady state, deglycosylated human TREM2 ECD on sensor
*1 amine or outer side, *2 acyl side, *3 side chain or, on linkers, in order; H or OH if unused. Bridges are numbered along the chain shown (N, C = ends). Where no end group is shown, it is not given here. TATA = O=C(CC[*:1])N1CN(C(=O)CC[*:2])CN(C(=O)CC[*:3])C1
pKd for assorted binders
Remember the convention: pKd equals -log10 of concentration in molar.

Some solved cases for reference:
binder | pKd
ACSEYCFWPFQWCA (linker 2-6-13 via TATA) [BCY19771] | 5.24
ACTNYCFWPFWSCA (linker 2-6-13 via TATA) [BCY19769] | 6.04

Q: pKd lookup needed for Ac-CSEYCFWPFYHC-NH2 (linker 1-5-12 via TATA) [BCY18217] , thanks.
Result: 6.05
